Source of measurements: ChEMBL document CHEMBL3763148

- protocol_text: Cytotoxicity against human PC3 cells assessed as cell growth inhibition at 10 uM after 48 hrs by SRB assay relative to control
- Format: functional
- experimental_parameters: PC-3, 48 h, read-out: GI
attribute_measured: inhibition of growth at 10 µM (%)
The figure you give is taken to be in %; do not add the unit.

> print(dat)
                              smiles.string  units.of.measure  test.result
1  O=c1nc(N2CCOCC2)oc2c(-c3cccc4c3sc3ccccc34)cccc12                 %         40.5
2  O=c1nc(N2CCOCC2)oc2ccc(-c3cccc4c3sc3ccccc34)cc12                 %         39.9
3  COc1ccc(-c2cccc3c(=O)nc(N4CCOCC4)oc23)cc1                 %         14.9
4      O=c1nc(N2CCOCC2)oc2c(-c3cccs3)cccc12                 %         17.2
5  NC(=O)c1ccc(-c2cccc3c(=O)nc(N4CCOCC4)oc23)cc1                 %         10.1

Query :: Which measured inhibition of growth at 10 µM value corresponds to O=c1nc(N2CCOCC2)oc2c(-c3ccsc3)cccc12 ?
Result :: 24.6

Query :: Would you mind telling me what inhibition of growth at 10 µM value was observed for O=c1nc(N2CCOCC2)oc2c(-c3cccc4c3oc3ccccc34)cccc12 ?
Result :: 23.2

Query :: Suppose we examine the compound O=c1nc(N2CCOCC2)oc2c(-c3cccc4ccccc34)cccc12 ; what inhibition of growth at 10 µM value has been reported?
Result :: 40.3

====

- protocol_text: Cytotoxicity against human HOP92 cells assessed as cell growth inhibition at 10 uM after 48 hrs by SRB assay relative to control
- Format: functional
- experimental_parameters: HOP-92, 48 h, read-out: GI
Response key: yes (1) means inhibition of growth at 10 µM >= 40%; no (0) means inhibition of growth at 10 µM < 40%.

Examples with answers:
> print(dat)
                              smiles.string  class.name
1  O=c1nc(N2CCOCC2)oc2c(-c3cccc4c3sc3ccccc34)cccc12     yes (1)
2  O=c1nc(N2CCOCC2)oc2ccc(-c3cccc4c3sc3ccccc34)cc12     yes (1)
3      O=c1nc(N2CCOCC2)oc2c(-c3cccs3)cccc12     yes (1)
4  COc1ccc(-c2cccc3c(=O)nc(N4CCOCC4)oc23)cc1      no (0)

Continue with the molecule presented below.
Query :: Please check the record O=c1nc(N2CCOCC2)oc2c(-c3cccc4c3oc3ccccc34)cccc12 and state if its inhibition of growth at 10 µM is at or above 40%.
Result :: yes (1)

====

- protocol_text: Cytotoxicity against human OVCAR5 cells assessed as cell growth inhibition at 10 uM after 48 hrs by SRB assay relative to control
- Assay type: functional
- experimental_parameters: OVCAR-5, 48 h, read-out: GI
Recorded measurements of inhibition of growth at 10 µM, one per entry
Write the quantity with the unit trailing the number.

Worked set:
> print(dat)
                              smiles.string             attribute.measured  test.result
1  COc1ccc(-c2cccc3c(=O)nc(N4CCOCC4)oc23)cc1  inhibition of growth at 10 µM        4.76%
2  O=c1nc(N2CCOCC2)oc2ccc(-c3cccc4c3sc3ccccc34)cc12  inhibition of growth at 10 µM        0.51%
3  O=c1nc(N2CCOCC2)oc2c(-c3cccc4c3oc3ccccc34)cccc12  inhibition of growth at 10 µM        10.7%

Query :: Please look up its inhibition of growth at 10 µM: NC(=O)c1ccc(-c2cccc3c(=O)nc(N4CCOCC4)oc23)cc1
Result :: 3.19%

Query :: Quick check: inhibition of growth at 10 µM of O=c1nc(N2CCOCC2)oc2c(-c3cccc4ccccc34)cccc12 ?
Result :: 10.8%

Query :: // returns reported inhibition of growth at 10 µM for input O=c1nc(N2CCOCC2)oc2c(-c3cccc4c3sc3ccccc34)cccc12
Result :: 18.8%

Query :: // query inhibition of growth at 10 µM value for entry O=c1nc(N2CCOCC2)oc2c(-c3cccs3)cccc12
Result :: 4.55%

Query :: Reported inhibition of growth at 10 µM, molecule O=c1nc(N2CCOCC2)oc2c(-c3ccsc3)cccc12 : ____
Result :: 10.8%
